- Test system: HEK-293T
- runDescription: Multiplex assay against HEK293T
- Type: toxicity, cell-based
- conditionDetails: human, 48 h, 1 µM, compound concentration 1 uM, replicate 2
measurementLabel: Population Fragmented Nuclei (%)
Give the quantity in %, number only.

Solved cases (5 shown):
- compound: "COc1cccc([C@@H](C)NCCCc2ccccc2Cl)c1.Cl [TECALCET HYDROCHLORIDE]"
  measuredNumber: 7
- compound: "Cc1[nH]c(/C=C2\\C(=O)Nc3ccc(S(=O)(=O)N(C)c4cccc(Cl)c4)cc32)c(C)c1C(=O)N1CCN(C)CC1"
  measuredNumber: 4
- compound: "CN(C)CC#Cc1ccc(OCCCc2sc(N3CCc4cccc(C(=O)Nc5nc6ccccc6s5)c4C3)nc2C(=O)O)c(F)c1 [A-1155463]"
  measuredNumber: 7
- compound: "CN1CCN(c2ccc(OC(F)(F)F)c(Nc3ncc4c(n3)-c3c(c(C(N)=O)nn3CCO)CC4)c2)CC1 [ONVANSERTIB]"
  measuredNumber: 12
- compound: "Cc1nc(-c2ccc(-c3ccc(C(=O)N4CCc5cc6c(cc54)C4(CCN(C)CC4)CO6)cc3)c(C)c2)no1 [SB-224289]"
  measuredNumber: 4

// Population Fragmented Nuclei (%) lookup, key: "CNc1nc(NCc2ccc(NS(C)(=O)=O)cc2Cl)cc(-c2ccccn2)n1"
5

Give the measured Population Fragmented Nuclei (%) of CC(C)NCC(O)COc1ccc(CCOCC2CC2)cc1.Cl (configuration not stated) [BETAXOLOL HYDROCHLORIDE] .
6

For the compound O=C1NCN(c2ccccc2)C12CCN(CCCOc1ccc(F)cc1)CC2 [SPIRAMIDE] , what Population Fragmented Nuclei (%) is on record?
4

# input compound: "COc1cc(-n2cnc3cc(-c4ccc(Cl)cc4)sc3c2=O)ccc1OCCN1CCCC1" ; wanted: its Population Fragmented Nuclei (%)
4

# query: Population Fragmented Nuclei (%) of entry "Cc1cc(C)cc(-c2cnc3cc(Cl)c(-c4cccc(O)c4)cc3c2OCCCN)c1"
5

Which measured Population Fragmented Nuclei (%) value corresponds to "CN(C)C(=O)/C(C#N)=C/c1ccc(-c2nc3cnc4[nH]ccc4c3n2C2CCCCC2)o1" ?
9

If you can, please state the reported Population Fragmented Nuclei (%) value of C[C@@H](NCCCc1cccc(C(F)(F)F)c1)c1cccc2ccccc12.Cl [CINACALCET HYDROCHLORIDE] .
3

Need Population Fragmented Nuclei (%), item "C=CC(=O)Nc1cccc(C(=O)Nc2ccc(Nc3cc(-c4[nH]c(SC)nc4C)ccn3)cc2)c1"
7
